The reported measurements were obtained from patent US20060281763A1.

Biological target: TGFβ R1 (Homo sapiens, UniProt P36897)
Sequence (P36897 34-503): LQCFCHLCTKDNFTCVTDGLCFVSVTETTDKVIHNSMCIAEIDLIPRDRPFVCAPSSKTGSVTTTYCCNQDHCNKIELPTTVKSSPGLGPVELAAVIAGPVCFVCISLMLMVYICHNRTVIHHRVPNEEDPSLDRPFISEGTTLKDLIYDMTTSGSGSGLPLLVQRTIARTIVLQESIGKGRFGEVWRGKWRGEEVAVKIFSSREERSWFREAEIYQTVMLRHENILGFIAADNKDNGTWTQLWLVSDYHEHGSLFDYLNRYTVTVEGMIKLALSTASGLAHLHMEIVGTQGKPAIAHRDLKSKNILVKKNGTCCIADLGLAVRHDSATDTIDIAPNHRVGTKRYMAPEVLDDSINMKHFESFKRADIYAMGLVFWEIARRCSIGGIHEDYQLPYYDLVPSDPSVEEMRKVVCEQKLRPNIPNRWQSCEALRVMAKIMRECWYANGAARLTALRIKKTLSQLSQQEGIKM
Test: TGFβ R1 autophosphorylation protocol (33P-ATP, phosphocellulose filter plate)
Type: biochemical
Settings: 10 uM ATP, 170 nM TGFβ R1, 20 minutes at room temperature, read-out: IC50 for Kinase Inhibition
pIC50: −log10 of the molar value.
value.kind: pIC50

a = COc1cnc(-c2cc(Cl)ccc2F)nc1Nc1ccncc1C(=O)N1CCN(C)CC1
b = COc1cnc(-c2cc(Cl)ccc2F)nc1Nc1ccncc1C(=O)NCCNC(=O)NC(C)C
c = O=C(NC1CC1)c1cnccc1Nc1nc(-c2cc(Cl)ccc2F)ncc1N1CCCC1
Query: With the 3 compounds above, produce a list ordered by ascending pIC50. // respond by listing labels in the order requested
Reply: a, b, c

1 = COc1cnc(-c2cc(Cl)ccc2F)nc1Nc1ccncc1C(=O)NCCC#N
2 = COc1cnc(-c2cc(Cl)ccc2F)nc1Nc1ccncc1C(=O)NC1CCN(CCC2O[C@H](CO)[C@@H](O)[C@H](O)[C@H]2O)CC1 (some centres unmarked)
3 = COc1cnc(-c2cc(Cl)ccc2F)nc1Nc1ccncc1C(=O)NCC(=O)O
Query: Sort the compounds on pIC50; start with the lowest figure. // respond by listing labels in the order requested
Reply: 3, 1, 2
(3: 6.04, 1: 7.00, 2: 7.74)

a = COc1ccc(NC(=O)NCCNC(=O)c2cnccc2Nc2nc(-c3cc(Cl)ccc3F)ncc2OC)cc1
b = CN(C)c1cnc(-c2cc(Cl)ccc2F)nc1Nc1ccncc1C(=O)NCC(C)(C)O
Query: Of the pair a and b , name the member with the lesser recorded pIC50. # reply format: chosen label
Reply: a

* * *

Target: TGFβ R1 (Homo sapiens, UniProt P36897)
Sequence (P36897 34-503): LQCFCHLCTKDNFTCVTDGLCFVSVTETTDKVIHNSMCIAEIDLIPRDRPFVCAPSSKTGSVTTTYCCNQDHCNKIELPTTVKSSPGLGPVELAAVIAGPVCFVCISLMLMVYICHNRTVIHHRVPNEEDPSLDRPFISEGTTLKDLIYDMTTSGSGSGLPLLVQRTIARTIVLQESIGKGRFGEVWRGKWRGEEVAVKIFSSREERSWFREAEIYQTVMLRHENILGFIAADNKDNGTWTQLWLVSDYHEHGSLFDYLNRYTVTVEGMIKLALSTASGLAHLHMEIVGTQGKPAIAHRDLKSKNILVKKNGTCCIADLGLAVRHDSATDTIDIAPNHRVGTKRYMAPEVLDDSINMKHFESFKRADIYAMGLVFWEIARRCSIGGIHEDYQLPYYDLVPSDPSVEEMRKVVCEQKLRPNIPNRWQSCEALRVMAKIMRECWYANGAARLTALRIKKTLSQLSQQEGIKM
Experiment: TGFβ R1 autophosphorylation protocol (33P-ATP, phosphocellulose filter plate)
Assay type: biochemical
Conditions: 10 uM ATP, 170 nM TGFβ R1, room temperature 20 minutes, read-out: IC50 for Kinase Inhibition
value.kind: IC50 (nM)

Observe how each entry below is paired with its result.
• CC(C)c1cnc(-c2cc(Cl)ccc2F)nc1Nc1ccncc1C(=O)NCCCN1C[C@H](O)C[C@H]1C(=O)N1CCCC1 = 13
• COc1cnc(-c2cc(Cl)ccc2F)nc1Nc1ccncc1C(=O)N1CC[C@H](N)C1 = 258

1 = CC(C)OCCCNC(=O)c1cnccc1Nc1nc(-c2cc(Cl)ccc2F)ncc1C(C)C
2 = CC(C)c1cnc(-c2cc(Cl)ccc2F)nc1Nc1ccncc1C(=O)N[C@@H]1CCC[C@H]1OCc1ccccc1 (stereo in doubt)
3 = CC(C)c1cnc(-c2cc(Cl)ccc2F)nc1Nc1cc[n+]([O-])cc1C(=O)NCC(C)(C)O
4 = CC(C)(O)CNC(=O)c1cnccc1Nc1nc(-c2cc(Cl)ccc2F)ncc1C1CC1
5 = CC(C)c1cnc(-c2cc(Cl)ccc2F)nc1Nc1ccncc1C(=O)NC1CC1CO (stereo not shown) [Compound 179]
Query: // ranking: key=IC50, reverse=True // respond by listing labels in the order requested
Reply: 2, 3, 1, 4, 5

* * *

Target: TGFβ R1 (Homo sapiens, UniProt P36897)
Experiment: TGFβ R1 autophosphorylation protocol (33P-ATP, phosphocellulose filter plate)
Assay type: biochemical
Conditions: 10 uM ATP, 170 nM TGFβ R1, 20 minutes at room temperature, read-out: IC50 for Kinase Inhibition
value.kind: IC50 (nM)

- NC(=O)c1cnccc1Nc1nc(-c2cc(Cl)ccc2F)ncc1Cl: 200
- CN/C(=N\C#N)NCCCNC(=O)c1cnccc1Nc1nc(-c2cc(Cl)ccc2F)ncc1OC: 50
- CC(C)NCCNC(=O)c1cnccc1Nc1nc(-c2cc(Cl)ccc2F)ncc1N1CCCC1: 200
- CONC(=O)c1cnccc1Nc1nc(-c2cc(Cl)ccc2F)ncc1OC: 190
- COc1cnc(-c2cc(Cl)ccc2F)nc1Nc1ccncc1C(=O)NCCCNC(=O)CO[C@H]1O[C@H](CO)[C@H](O)[C@H](O)[C@H]1O: 44

I = COc1cnc(-c2cc(Cl)ccc2F)nc1Nc1ccncc1C(=O)NC1CNC1
II = COc1cnc(-c2cc(Cl)ccc2F)nc1Nc1ccncc1C(=O)NCCCNCC(F)(F)C(F)(F)F
Query: Which is greater in IC50, the first item I or the second item II ? # reply format: chosen label
Reply: II
(II: 140 nM, I: 50 nM)

1 = COc1cnc(-c2cc(Cl)ccc2F)nc1Nc1ccncc1C(=O)NC1CC1CO (stereo not drawn)
2 = COc1cnc(-c2cc(Cl)ccc2F)nc1Nc1ccncc1C(=O)NCCNCC(F)(F)F
3 = COc1cnc(-c2cc(Cl)ccc2F)nc1Nc1ccncc1C(=O)NCCCNCCC1O[C@H](COC(C)=O)[C@@H](OC(C)=O)[C@H](OC(C)=O)[C@H]1OC(C)=O (stereo partly drawn)
4 = COc1cnc(-c2cc(Cl)ccc2F)nc1Nc1ccncc1C(=O)NCC1(O)CCCCC1
Query: // ranking: key=IC50, reverse=True // respond by listing labels in the order requested
Reply: 4, 2, 3, 1
(4: 11800 nM, 2: 130 nM, 3: 90 nM, 1: 38 nM)

A = CN(C)c1cnc(-c2cc(Cl)ccc2F)nc1Nc1ccncc1C(=O)NCCNCCO
B = CC(C)c1cnc(-c2cc(Cl)ccc2F)nc1Nc1ccncc1C(=O)N[C@H]1CCC[C@@H]1O
Query: Which is greater in IC50, the first item A or the second item B ? # reply format: chosen label
Reply: B

1 = COc1cnc(-c2cc(Cl)ccc2F)nc1Nc1ccncc1C(=O)NCCCNCCOC1O[C@H](COC(C)=O)[C@@H](OC(C)=O)[C@H](OC(C)=O)[C@H]1OC(C)=O (stereo in doubt)
2 = CC(C)c1cnc(-c2cc(Cl)ccc2F)nc1Nc1ccncc1C(=O)NC1CNC1
Query: Which is greater in IC50, the first item 1 or the second item 2 ? # reply format: chosen label
Reply: 1

* * *

Molecular target: TGFβ R1 (Homo sapiens)
Assay: TGFβ R1 autophosphorylation protocol (33P-ATP, phosphocellulose filter plate)
Type: biochemical
Details: 10 uM ATP, 170 nM TGFβ R1, 20 minutes at room temperature, read-out: IC50 for Kinase Inhibition
pIC50: −log10 of the molar value.
value.kind: pIC50

Observe how each entry below is paired with its result.
* COc1cnc(-c2cc(Cl)ccc2F)nc1Nc1ccncc1C(=O)NCCCNC(=O)CC1O[C@H](CO)[C@@H](O)[C@H](O)[C@H]1O (stereo partly drawn) | 6.99
* COc1cnc(-c2cc(Cl)ccc2F)nc1Nc1ccncc1C(=O)NCCCN1CCOCC1 | 7.52

A = O=C(NC1CC1)c1cnccc1Nc1nc(-c2cc(Cl)ccc2F)ncc1Cl
B = COc1cnc(-c2cc(Cl)ccc2F)nc1Nc1ccncc1C(=O)NCC(F)F
Query: Of the pair A and B , name the member with the lesser recorded pIC50. # reply format: chosen label
Reply: B
(B: 6.17, A: 6.89)

I = COc1cnc(-c2cc(Cl)ccc2F)nc1Nc1ccncc1C(=O)NC1CCN(C(=O)CC2O[C@H](CO)[C@@H](O)[C@H](O)[C@H]2O)CC1 (stereo partly drawn)
II = COc1cnc(-c2cc(Cl)ccc2F)nc1Nc1ccncc1C(=O)NCCCN/C(=N/C#N)N1CCC1
III = COc1cnc(-c2cc(Cl)ccc2F)nc1Nc1ccncc1C(=O)NCCNC(=O)COC1O[C@H](CO)[C@H](O)[C@H](O)[C@H]1O (stereo partly drawn)
IV = COc1cnc(-c2cc(Cl)ccc2F)nc1Nc1ccncc1C(=O)NCCNCCOC1O[C@H](COC(C)=O)[C@H](OC(C)=O)[C@H](OC(C)=O)[C@H]1OC(C)=O (stereo partly drawn)
Query: // ranking: key=pIC50, reverse=True // respond by listing labels in the order requested
Reply: IV, III, II, I
(IV: 7.60, III: 7.24, II: 6.89, I: 6.68)

a = COc1cnc(-c2cc(Cl)ccc2F)nc1Nc1ccncc1C(=O)NCCCN1CCCC1=O
b = COc1cnc(-c2cc(Cl)ccc2F)nc1Nc1ccncc1C(=O)NCCCNC(=O)COC1O[C@H](COC(C)=O)[C@@H](OC(C)=O)[C@H](OC(C)=O)[C@H]1OC(C)=O (stereo partly drawn)
c = O=C(NCCN1CCCC1)c1cnccc1Nc1nc(-c2cc(Cl)ccc2F)ncc1N1CCCC1
d = COc1cnc(-c2cc(Cl)ccc2F)nc1Nc1ccncc1C(=O)NCCCN1CCCC1
e = COc1cnc(-c2cc(Cl)ccc2F)nc1Nc1ccncc1C(=O)N1CCN(CCO)CC1
Query: // ranking: key=pIC50, reverse=True // respond by listing labels in the order requested
Reply: d, a, c, b, e

A = COc1cnc(-c2cc(Cl)ccc2F)nc1Nc1ccncc1C(=O)NCCCN1CCCC1C(=O)N(C)C (stereo not drawn)
B = COC[C@H]1OC(CCNCCCNC(=O)c2cnccc2Nc2nc(-c3cc(Cl)ccc3F)ncc2OC)[C@H](OC)[C@@H](OC)[C@@H]1OC (stereo partly drawn)
Query: Of the pair A and B , name the member with the lesser recorded pIC50. # reply format: chosen label
Reply: A

P = COc1cnc(-c2cc(Cl)ccc2F)nc1Nc1ccncc1C(=O)NCCNC(=O)COC1O[C@H](COC(C)=O)[C@@H](OC(C)=O)[C@H](OC(C)=O)[C@H]1OC(C)=O (stereo partly drawn)
Q = CCOC(=O)CNC(=O)c1cnccc1Nc1nc(-c2cc(Cl)ccc2F)ncc1OC
Query: Which is greater in pIC50, the first item P or the second item Q ? # reply format: chosen label
Reply: Q
(Q: 7.40, P: 6.74)

I = COc1cnc(-c2cc(Cl)ccc2F)nc1Nc1ccncc1C(=O)NCCNC(=O)CC1O[C@H](CO)[C@@H](O)[C@H](O)[C@H]1O (stereo partly drawn)
II = COc1cnc(-c2cc(Cl)ccc2F)nc1Nc1ccncc1C(=O)NCCCn1ccnc1
Query: Which is greater in pIC50, the first item I or the second item II ? # reply format: chosen label
Reply: II

a = COc1cnc(-c2cc(Cl)ccc2F)nc1Nc1ccncc1C(=O)NCCCN1CCN(C)CC1
b = COC(=O)[C@H]1C[C@@H](NC(=O)c2cnccc2Nc2nc(-c3cc(Cl)ccc3F)ncc2OC)CN1C(=O)OC(C)(C)C
Query: Which is greater in pIC50, the first item a or the second item b ? # reply format: chosen label
Reply: a
